# EXPERIMENTAL SYSTEM: Sodium channel alpha subunits; brain (Types I, II, III) (Homo sapiens, UniProt P35498+Q99250+Q9NY46)
# TEST METHOD NOTES: Antagonism of batrachotoxin-mediated sodium ion uptake into cultured neuroblastoma cells
# Format: functional
EXPERIMENTAL READOUT: IC50 (µM)
A number alone suffices; assume µM.

Q: Value lookup for IC50; key = CO[C@]12CCC3(C)C(CCC[C@@]3(CO)O1)C2
Result: 1000

Q: Value lookup for IC50; key = CC12CC[C@]3(OCc4cccc(Br)c4)CC1CCC[C@@]2(CO)O3
Result: 80

Q: Value lookup for IC50; key = CO[C@]12CCC3(C)C(CCC[C@@]3([C@H](O)CCCN(C)C)O1)C2
Result: 200

Q: Value lookup for IC50; key = COC[C@H](CCOC(=O)c1ccccc1)C[C@@H](O)[C@@]12CCCC3C[C@@](OC)(CCC31C)O2
Result: 5

Q: Value lookup for IC50; key = CN(C)CCC[C@@H](O)[C@@]12CCCC3C[C@@](OCc4ccccc4)(CCC31C)O2
Result: 4

Next compound, please.
Q: Value lookup for IC50; key = CO[C@]12CCC3(C)C(CCC[C@@]3([C@H](O)C[C@@H](CCOC(=O)c3ccccc3)CN(C)C)O1)C2
Result: 0.5

====

# EXPERIMENTAL SYSTEM: Sodium channel alpha subunits; brain (Types I, II, III) (Rattus norvegicus, UniProt P04775+P04774+P08104)
# TEST METHOD NOTES: Inhibition of [3H]batrachotoxin binding to rat brain neuronal membranes
# Assay type: cell membranes, Membrane
Measured IC50, listed per entry for reference.
A number alone suffices; assume µM.

Q: Value lookup for IC50; key = CN(C)CCC[C@@H](O)[C@@]12CCCC3C[C@@](OCc4ccccc4)(CCC31C)O2
Result: 4.5

---
Q: Value lookup for IC50; key = CO[C@]12CCC3(C)C(CCC[C@@]3(CO)O1)C2
Result: 2000

Q: Value lookup for IC50; key = COc1ccc(C(=O)O[C@H]2CC[C@@]3(C)[C@@H]4CC[C@H]5[C@]6(O)C[C@H](O)[C@@]7(O)[C@@H](CN8C[C@@H](C)CC[C@H]8[C@@]7(C)O)[C@]6(O)C[C@@]53O[C@]24O)cc1OC
Result: 22

====

Measured IC50, listed per entry for reference.
# EXPERIMENTAL SYSTEM: Sodium channel alpha subunits; brain (Types I, II, III) (Rattus norvegicus, UniProt P04775+P04774+P08104)
# TEST METHOD NOTES: Inhibition of [3H]batrachotoxin binding to rat brain neuronal membranes
# Type: cell membranes, Membrane
A number alone suffices; assume µM.

Q: Value lookup for IC50; key = CO[C@]12CCC3(C)C(CCC[C@@]3([C@H](O)CCCN(C)C)O1)C2
Result: 130

Q: Value lookup for IC50; key = CO[C@]12CCC3(C)C(CCC[C@@]3([C@H](O)C[C@@H](CCOC(=O)c3ccccc3)CN(C)C)O1)C2
Result: 3.6

---
Q: Value lookup for IC50; key = CC12CC[C@]3(OCc4cccc(Br)c4)CC1CCC[C@@]2(CO)O3
Result: 10

Q: Value lookup for IC50; key = COC[C@H](CCOC(=O)c1ccccc1)C[C@@H](O)[C@@]12CCCC3C[C@@](OC)(CCC31C)O2
Result: 10

Q: Value lookup for IC50; key = CCCCNc1ccc(C(=O)OCCN(C)C)cc1
Result: 6
